Molecular target: human oxytocin receptors (Homo sapiens, UniProt P30559)
Construct: expressed in transfected cells; host or cells: HEK-293, transient expression; lysed and homogenized cells
Sequence (P30559 1-389): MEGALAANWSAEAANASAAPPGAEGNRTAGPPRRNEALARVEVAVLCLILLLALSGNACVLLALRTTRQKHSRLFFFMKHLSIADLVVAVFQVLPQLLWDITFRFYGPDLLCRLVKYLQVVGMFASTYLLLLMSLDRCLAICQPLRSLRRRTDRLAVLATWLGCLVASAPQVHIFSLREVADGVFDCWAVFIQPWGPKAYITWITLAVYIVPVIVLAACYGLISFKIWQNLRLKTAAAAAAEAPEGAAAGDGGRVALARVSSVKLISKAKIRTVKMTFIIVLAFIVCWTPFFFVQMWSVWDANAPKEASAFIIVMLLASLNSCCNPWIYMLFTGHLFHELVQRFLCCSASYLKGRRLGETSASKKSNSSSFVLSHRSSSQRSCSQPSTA
Assay: Oxytocin receptor binding assay
Settings: selectivity quotient
Method: 4. Oxytocin Receptor Binding Assay The substances were dissolved in a concentration of 10^−2 M in DMSO and diluted with incubation buffer (50 mM Tris, 10 mM MgCl2, 0.1% BSA, pH 7.4). […] On the day of the experiment, the cells were thawed, diluted with incubation buffer and homogenized using a Multipette Combitip (Eppendorf, Hamburg). […] The nonspecific binding was determined with 10^−6 M oxytocin (Bachem AG, H2510). […]
Readout: Ki(h − OT)/Ki(h − V1b)*

Compound	System name	Readout	Value measured
CCOc1ccccc1C1(NC(=O)N2CCN(C3CCN(CC)CC3)CC2)C(=O)N(S(=O)(=O)c2ccc(OC)cc2)c2cc(F)c(C#N)cc21 (stereo not shown)	human oxytocin receptors (Homo sapiens, UniProt P30559)	Ki(h − OT)/Ki(h − V1b)*	+++ (>75)
CCOc1ncccc1C1(OC(=O)N2CCN(C3CCN(C)CC3)CC2)C(=O)N(S(=O)(=O)c2ccc(OC)cc2)c2cc(F)c(Cl)cc21 (stereo not shown)	human oxytocin receptors (Homo sapiens, UniProt P30559)	Ki(h − OT)/Ki(h − V1b)*	+ (10-<25)
CCOc1ncccc1C1(NC(=O)N2CCN(C3CCN(CC)CC3)CC2)C(=O)N(S(=O)(=O)c2ccc(OC)cc2OC)c2cc(F)c(Cl)cc21 (stereo not shown)	human oxytocin receptors (Homo sapiens, UniProt P30559)	Ki(h − OT)/Ki(h − V1b)*	+++ (>75)
CCOc1ncccc1C1(NC(=O)N2CCN(C3CCN(C)CC3)CC2)C(=O)N(S(=O)(=O)c2ccc(OC)cc2OC)c2cc(F)c(C#N)cc21 (stereo not shown)	human oxytocin receptors (Homo sapiens, UniProt P30559)	Ki(h − OT)/Ki(h − V1b)*	+++ (>75)
CCOc1ncccc1C1(NC(=O)N2CCC(N3CCN(C)CC3)CC2)C(=O)N(S(=O)(=O)c2ccc(OC)cc2OC)c2cc(F)c(F)cc21 (stereo not shown)	human oxytocin receptors (Homo sapiens, UniProt P30559)	Ki(h − OT)/Ki(h − V1b)*	+ (10-<25)
CCOc1ncccc1C1(OC(=O)N2CCN(C3CCN(C)CC3)CC2)C(=O)N(S(=O)(=O)c2ccc(OC)cc2OC)c2cc(F)c(Cl)cc21 (stereo not shown)	human oxytocin receptors (Homo sapiens, UniProt P30559)	Ki(h − OT)/Ki(h − V1b)*	+ (10-<25)
CCOc1ccccc1C1(NC(=O)N2CCN(C3CCN(CC)CC3)CC2)C(=O)N(S(=O)(=O)c2ccccc2)c2cc(F)c(C#N)cc21 (stereo not shown)	human oxytocin receptors (Homo sapiens, UniProt P30559)	Ki(h − OT)/Ki(h − V1b)*	+++ (>75)
CCOc1ccccc1C1(NC(=O)N2CCN(C3CCN(C)CC3)CC2)C(=O)N(S(=O)(=O)c2ccc(OC)cc2)c2cc(F)c(C#N)cc21 (stereo not shown)	human oxytocin receptors (Homo sapiens, UniProt P30559)	Ki(h − OT)/Ki(h − V1b)*	+ (10-<25)
CCOc1ncccc1C1(OC(=O)N2CCN(C3CCN(C)CC3)CC2)C(=O)N(S(=O)(=O)c2ccccc2)c2cc(F)c(Cl)cc21 (stereo not shown)	human oxytocin receptors (Homo sapiens, UniProt P30559)	Ki(h − OT)/Ki(h − V1b)*	+++ (>75)
CCOc1ncccc1C1(NC(=O)N2CCN(C3CCN(C)CC3)CC2)C(=O)N(S(=O)(=O)c2ccc(OC)cc2OC)c2cc(F)c(F)cc21 (stereo not shown)	human oxytocin receptors (Homo sapiens, UniProt P30559)	Ki(h − OT)/Ki(h − V1b)*	+ (10-<25)
CCOc1ncccc1C1(NC(=O)N2CCC(N3CCN(C)CC3)CC2)C(=O)N(S(=O)(=O)c2ccc(OC)cc2)c2cc(F)c(C#N)cc21 (stereo not shown)	human oxytocin receptors (Homo sapiens, UniProt P30559)	Ki(h − OT)/Ki(h − V1b)*	+++ (>75)
CCOc1ccccc1C1(NC(=O)N2CCC(N3CCN(CC)CC3)CC2)C(=O)N(S(=O)(=O)c2ccccc2)c2cc(F)c(C#N)cc21 (stereo not shown)	human oxytocin receptors (Homo sapiens, UniProt P30559)	Ki(h − OT)/Ki(h − V1b)*	+++ (>75)
CCOc1ncccc1C1(OC(=O)N2CCN(C3CCN(C)CC3)CC2)C(=O)N(S(=O)(=O)c2ccc(OC)cc2OC)c2cc(F)c(C#N)cc21 (stereo not shown)	human oxytocin receptors (Homo sapiens, UniProt P30559)	Ki(h − OT)/Ki(h − V1b)*	+++ (>75)
CCOc1ncccc1C1(OC(=O)N2CCN(C3CCN(C)CC3)CC2)C(=O)N(S(=O)(=O)c2ccc(OC)cc2)c2cc(F)c(C#N)cc21 (stereo not shown)	human oxytocin receptors (Homo sapiens, UniProt P30559)	Ki(h − OT)/Ki(h − V1b)*	+++ (>75)
CCOc1ccccc1C1(NC(=O)N2CCN(C3CCN(CC)CC3)CC2)C(=O)N(S(=O)(=O)c2ccc(OC)cc2OC)c2cc(F)c(C#N)cc21 (stereo not shown)	human oxytocin receptors (Homo sapiens, UniProt P30559)	Ki(h − OT)/Ki(h − V1b)*	+++ (>75)
CCOc1ncccc1C1(OC(=O)N2CCN(C3CCN(C)CC3)CC2)C(=O)N(S(=O)(=O)c2ccc(OC)cc2OC)c2cc(Cl)c(F)cc21 (stereo not shown)	human oxytocin receptors (Homo sapiens, UniProt P30559)	Ki(h − OT)/Ki(h − V1b)*	+ (10-<25)
CCOc1ncccc1C1(OC(=O)N2CCN(C3CCN(C)CC3)CC2)C(=O)N(S(=O)(=O)c2ccc(OC)cc2)c2cc(F)c(F)cc21 (stereo not shown)	human oxytocin receptors (Homo sapiens, UniProt P30559)	Ki(h − OT)/Ki(h − V1b)*	+ (10-<25)
CCOc1ncccc1C1(NC(=O)N2CCC(N3CCN(CC)CC3)CC2)C(=O)N(S(=O)(=O)c2ccc(OC)cc2)c2cc(F)c(C#N)cc21 (stereo not shown)	human oxytocin receptors (Homo sapiens, UniProt P30559)	Ki(h − OT)/Ki(h − V1b)*	+++ (>75)

----------
Target: human vasopressin V1b receptor (Homo sapiens)
Sequence (P47901 1-424): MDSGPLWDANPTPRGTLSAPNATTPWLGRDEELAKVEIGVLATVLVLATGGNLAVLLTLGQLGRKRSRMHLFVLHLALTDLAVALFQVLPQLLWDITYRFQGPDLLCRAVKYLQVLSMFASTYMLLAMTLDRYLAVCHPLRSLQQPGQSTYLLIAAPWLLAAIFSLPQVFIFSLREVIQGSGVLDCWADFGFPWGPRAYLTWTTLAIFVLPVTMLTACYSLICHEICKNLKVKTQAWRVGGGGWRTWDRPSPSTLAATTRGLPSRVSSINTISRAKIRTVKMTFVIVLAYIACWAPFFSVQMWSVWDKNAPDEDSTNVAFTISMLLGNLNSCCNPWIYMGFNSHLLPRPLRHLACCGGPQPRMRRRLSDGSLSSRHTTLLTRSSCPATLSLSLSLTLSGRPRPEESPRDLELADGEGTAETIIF

Compound	Ki
CCOc1ncccc1C1(NC(=O)N2CCC(N3CCN(C)CC3)CC2)C(=O)N(S(=O)(=O)c2ccc(OC)cc2OC)c2cc(F)c(Cl)cc21 (stereo not drawn)	< 1 nM
CCOc1ncccc1C1(NC(=O)N2CCC(N3CCN(C)CC3)CC2)C(=O)N(S(=O)(=O)c2ccc(OC)cc2)c2cc(F)c(C#N)cc21 (stereo not drawn)	1 to 10 nM
CCOc1ncccc1C1(NC(=O)N2CCC(N3CCN(CC)CC3)CC2)C(=O)N(S(=O)(=O)c2ccc(OC)cc2OC)c2cc(F)c(C#N)cc21 (stereo not drawn)	< 1 nM
CCOc1ncccc1C1(OC(=O)N2CCN(C3CCN(C)CC3)CC2)C(=O)N(S(=O)(=O)c2ccc(OC)cc2OC)c2cc(F)c(F)cc21 (stereo not drawn)	1 to 10 nM
CCOc1ccccc1C1(NC(=O)N2CCC(N3CCN(C)CC3)CC2)C(=O)N(S(=O)(=O)c2ccc(OC)cc2)c2cc(F)c(C#N)cc21 (stereo not drawn)	1 to 10 nM
CCOc1ncccc1C1(OC(=O)N2CCN(C3CCN(C)CC3)CC2)C(=O)N(S(=O)(=O)c2ccccc2OC)c2cc(F)c(Cl)cc21 (stereo not drawn)	< 1 nM
CCOc1ccccc1C1(NC(=O)N2CCN(C3CCN(CC)CC3)CC2)C(=O)N(S(=O)(=O)c2ccccc2)c2cc(F)c(C#N)cc21 (stereo not drawn)	1 to 10 nM
CCOc1ccccc1C1(NC(=O)N2CCC(N3CCN(C)CC3)CC2)C(=O)N(S(=O)(=O)c2ccc(OC)cc2OC)c2cc(F)c(C#N)cc21 (stereo not drawn)	1 to 10 nM
CCOc1ncccc1C1(NC(=O)N2CCC(N3CCN(C)CC3)CC2)C(=O)N(S(=O)(=O)c2ccc(OC)cc2OC)c2cc(F)c(F)cc21 (stereo not drawn)	1 to 10 nM
